Target: Glutamate receptor 1 (Rattus norvegicus, UniProt P19490)
Sequence (P19490 whole entry, canonical isoform): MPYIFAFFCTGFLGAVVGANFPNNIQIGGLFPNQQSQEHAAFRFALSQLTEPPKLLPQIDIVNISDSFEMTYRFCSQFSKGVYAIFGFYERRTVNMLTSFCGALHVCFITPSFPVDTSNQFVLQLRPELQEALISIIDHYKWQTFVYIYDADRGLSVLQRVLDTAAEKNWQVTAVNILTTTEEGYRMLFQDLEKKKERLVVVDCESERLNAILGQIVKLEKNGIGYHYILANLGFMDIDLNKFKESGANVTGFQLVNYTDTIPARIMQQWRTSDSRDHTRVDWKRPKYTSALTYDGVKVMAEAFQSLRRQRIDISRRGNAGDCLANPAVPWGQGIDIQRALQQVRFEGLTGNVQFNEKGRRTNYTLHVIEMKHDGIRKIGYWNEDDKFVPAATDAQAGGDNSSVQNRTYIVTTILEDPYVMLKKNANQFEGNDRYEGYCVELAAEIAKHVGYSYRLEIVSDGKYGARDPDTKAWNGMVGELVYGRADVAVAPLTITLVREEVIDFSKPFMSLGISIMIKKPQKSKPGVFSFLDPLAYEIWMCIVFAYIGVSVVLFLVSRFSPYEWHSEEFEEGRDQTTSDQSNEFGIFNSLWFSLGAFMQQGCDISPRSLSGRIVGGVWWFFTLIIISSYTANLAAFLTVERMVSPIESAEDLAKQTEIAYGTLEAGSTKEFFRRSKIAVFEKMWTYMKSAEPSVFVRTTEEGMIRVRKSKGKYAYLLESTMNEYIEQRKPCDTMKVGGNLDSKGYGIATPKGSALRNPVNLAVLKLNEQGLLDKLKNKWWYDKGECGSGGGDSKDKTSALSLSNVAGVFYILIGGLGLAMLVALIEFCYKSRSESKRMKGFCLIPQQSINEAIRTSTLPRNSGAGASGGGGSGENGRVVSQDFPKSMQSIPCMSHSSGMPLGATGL
Test: Inhibition of rat GluA1 flip isoform expressed in Xenopus laevis oocytes assessed as inhibition of L-Glu-evoked currents under dark condition at -80 mV membrane potential by two electrode voltage-clamp assay
Type: cell-based
pIC50: −log10 of the molar value.

{"smiles_repr": "CCN(CC)c1ccc(/N=N/c2ccc(C(=O)N[C@@H](CC(N)=O)C(=O)NCCCCCCCCNCCCCNC(=O)[C@@H](N)CCCNC(=N)N)cc2)cc1", "pIC50": 8.10}

* * *

Target: Glutamate receptor 1 (Rattus norvegicus)
Test: Inhibition of rat GluA1 flip isoform expressed in Xenopus laevis oocytes assessed as inhibition of L-Glu-evoked currents at 100 nM under dark condition at -80 mV membrane potential by two electrode voltage-clamp assay
Format: cell-based
Recorded inhibition by entry
measurement_type: inhibition

{"smiles_repr": "CCN(CC)c1ccc(/N=N/c2ccc(C(=O)NCCCCCCCCCNCCCNC(=O)[C@@H](N)CCCNC(=N)N)cc2)cc1", "system_tested": "Glutamate receptor 1 (Rattus norvegicus)", "result": "20 to 50%"}
{"smiles_repr": "CN(C)c1ccc(/N=N/c2cccc(C(=O)N[C@@H](CC(N)=O)C(=O)NCCCCCCCCCNCCCNC(=O)[C@@H](N)CCCNC(=N)N)c2)cc1", "system_tested": "Glutamate receptor 1 (Rattus norvegicus)", "result": "20 to 50%"}
{"smiles_repr": "CN(C)c1ccc(/N=N/c2ccc(C(=O)NCCCCCCCCCNCCCNC(=O)[C@@H](N)CCCNC(=N)N)cc2)cc1", "system_tested": "Glutamate receptor 1 (Rattus norvegicus)", "result": "20 to 50%"}
{"smiles_repr": "CCN(CC)c1ccc(/N=N/c2ccc(C(=O)N[C@@H](CC(N)=O)C(=O)NCCCCCCCCCNCCCNC(=O)[C@@H](N)CCCNC(=N)N)cc2)cc1", "system_tested": "Glutamate receptor 1 (Rattus norvegicus)", "result": "20 to 50%"}
{"smiles_repr": "CN(C)c1ccc(/N=N/c2ccc(C(=O)N[C@@H](CC(N)=O)C(=O)NCCCCNCCCCCCCCNC(=O)[C@@H](N)CCCNC(=N)N)cc2)cc1", "system_tested": "Glutamate receptor 1 (Rattus norvegicus)", "result": "> 70%"}
{"smiles_repr": "CCN(CC)c1ccc(/N=N/c2cccc(C(=O)NCCCCCCCCCNCCCNC(=O)[C@@H](N)CCCNC(=N)N)c2)cc1", "system_tested": "Glutamate receptor 1 (Rattus norvegicus)", "result": "20 to 50%"}
{"smiles_repr": "CN(C)c1ccc(/N=N/c2ccc(C(=O)N[C@@H](CC(N)=O)C(=O)NCCCCCCCCCNCCCNC(=O)[C@@H](N)CCCNC(=N)N)cc2)cc1", "system_tested": "Glutamate receptor 1 (Rattus norvegicus)", "result": "20 to 50%"}
{"smiles_repr": "CN(C)c1ccc(/N=N/c2cccc(C(=O)N[C@@H](CC(N)=O)C(=O)NCCCCNCCCCCCCCNC(=O)[C@@H](N)CCCNC(=N)N)c2)cc1", "system_tested": "Glutamate receptor 1 (Rattus norvegicus)", "result": "> 70%"}
{"smiles_repr": "CN(C)c1ccc(/N=N/c2cccc(C(=O)NCCCCCCCCCNCCCNC(=O)[C@@H](N)CCCNC(=N)N)c2)cc1", "system_tested": "Glutamate receptor 1 (Rattus norvegicus)", "result": "20 to 50%"}
{"smiles_repr": "CCN(CC)c1ccc(/N=N/c2ccc(C(=O)N[C@@H](CC(N)=O)C(=O)NCCCCCCCCNCCCCNC(=O)[C@@H](N)CCCNC(=N)N)cc2)cc1", "system_tested": "Glutamate receptor 1 (Rattus norvegicus)", "result": "60%"}
{"smiles_repr": "CCN(CC)c1ccc(/N=N/c2cccc(C(=O)N[C@@H](CC(N)=O)C(=O)NCCCCNCCCCCCCCNC(=O)[C@@H](N)CCCNC(=N)N)c2)cc1", "system_tested": "Glutamate receptor 1 (Rattus norvegicus)", "result": "> 70%"}
{"smiles_repr": "CCN(CC)c1ccc(/N=N/c2cccc(C(=O)N[C@@H](CC(N)=O)C(=O)NCCCCCCCCCNCCCNC(=O)[C@@H](N)CCCNC(=N)N)c2)cc1", "system_tested": "Glutamate receptor 1 (Rattus norvegicus)", "result": "20 to 50%"}

The values you see were collected from ChEMBL document CHEMBL4196152.
